study target: Imidazoline I2 binding site (Oryctolagus cuniculus)
assay procedure: Displacement of [3H]idazoxan from imidazoline receptor I-2 of rabbit kidney membranes
reported metric: Log Ki

molecule | reported metric | result
C[C@H](CC1=NCCN1)c1ccccc1 | Log Ki | -5.6
c1ccc(CCC2=NCCN2)cc1 | Log Ki | -8.6
C[C@@H](CC1=NCCN1)c1ccccc1 | Log Ki | -7
CC(CC1=NCCN1)c1ccccc1 (centres undefined) | Log Ki | -6.91

---

study target: Adrenergic receptor alpha-2 (Rattus norvegicus, UniProt P22086+P19328+P22909)
assay procedure: Displacement of [3H]clonidine from rat cortex membrane Alpha-2 adrenergic receptors
# key: entry, value: Log Ki
reported metric: Log Ki

compound | result
CC(CC1=NCCN1)c1ccccc1 (configuration not stated) | -5.93
C[C@H](CC1=NCCN1)c1ccccc1 | -5.9
C[C@@H](CC1=NCCN1)c1ccccc1 | -5.8
C[C@@H](Cc1ccccc1)C1=NCCN1 | -5.3
CC(Cc1ccccc1)C1=NCCN1 (configuration not stated) | -5.45
C[C@H](Cc1ccccc1)C1=NCCN1 | -5.4
c1ccc(CCC2=NCCN2)cc1 [PHENYZOLINE] | -5.7
